# system_under_test: SST2 (Homo sapiens, UniProt P30874)
# Construct: host or cells: PathHunter CHO-K1 SST2 cells
# Sequence (P30874 whole entry): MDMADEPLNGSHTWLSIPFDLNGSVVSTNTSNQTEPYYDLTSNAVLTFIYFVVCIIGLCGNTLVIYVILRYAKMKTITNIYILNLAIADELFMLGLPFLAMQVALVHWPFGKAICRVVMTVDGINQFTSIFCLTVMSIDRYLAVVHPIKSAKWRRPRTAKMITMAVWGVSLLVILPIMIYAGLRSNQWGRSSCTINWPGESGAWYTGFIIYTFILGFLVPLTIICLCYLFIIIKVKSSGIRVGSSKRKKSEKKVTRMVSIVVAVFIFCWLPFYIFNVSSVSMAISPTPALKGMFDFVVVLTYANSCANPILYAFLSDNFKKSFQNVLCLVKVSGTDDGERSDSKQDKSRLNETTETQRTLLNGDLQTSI
# experimental_protocol: PathHunter CHO-K1 SST2 internalization assay
# Type: cell-based
# condition_notes: PathHunter CHO-K1 SST2, 90 min; read-out: Internalization EC50
pEC50: −log10 of the molar value. Starred links: 1 amine or outer side, 2 acyl side, 3 side chain; linkers in the order of their positions; H or OH if unused. Non-standard residues stand in square brackets, D forms with d. Residues, ends and D or L forms follow the SMILES beside them. *: point of attachment. X1 = Cc1cc(F)cc(-c2cnc(NCCNC(=O)CCOCCC(=O)*)c(-c3nc4ccc(Cl)cc4[nH]3)c2N2CCC(N)CC2)c1; Dolaproine = CO[C@@H]([C@@H]1CCCN1)[C@@H](C)C(=O)O; Dil = CC[C@H](C)[C@H](NC)[C@@H](CC(=O)O)OC; PABC = O=C(OCc1ccc(N[*:1])cc1)[*:2]; X2 = C[C@@H](N*)[C@@H](O)c1ccccc1; Cya = N[C@@H](CS(=O)(=O)O)C(=O)O; Cit = NC(=O)NCCC[C@H](N)C(=O)O; NMeV = CN[C@H](C(=O)O)C(C)C

{"compound": "CC[C@H](C)[C@@H]([C@@H](CC(=O)N1CCC[C@H]1[C@H](OC)[C@@H](C)C(=O)N[C@H](C)[C@@H](O)c1ccccc1)OC)N(C)C(=O)[C@@H](NC(=O)[C@H](C(C)C)N(C)C(=O)OCc1ccc(NC(=O)[C@H](CCCNC(N)=O)NC(=O)[C@@H](NC(=O)[C@H](CS(N)(=O)=O)NC(=O)CCOCCC(=O)NCCNc2ncc(-c3cc(C)cc(F)c3)c(N3CCC(N)CC3)c2-c2nc3ccc(Cl)cc3[nH]2)C(C)C)cc1C(=O)NCCN)C(C)C", "system_under_test": "SST2 (Homo sapiens, UniProt P30874)", "pEC50": 8.00}
{"compound": "CCC(C)C(C(CC(=O)N1CCCC1C(OC)C(C)C(=O)NC(C)C(O)c1ccccc1)OC)N(C)C(=O)C(NC(=O)C(C(C)C)N(C)C(=O)OCc1ccc(NC(=O)CNC(=O)[C@H](Cc2ccccc2)NC(=O)CNC(=O)CNC(=O)CCOCCC(=O)NCCNc2ncc(-c3cc(C)cc(F)c3)c(N3CCC(N)CC3)c2-c2nc3ccc(Cl)cc3[nH]2)cc1)C(C)C (stereo in doubt)", "system_under_test": "SST2 (Homo sapiens, UniProt P30874)", "pEC50": 8.21}
{"compound": "CC[C@H](C)[C@@H]([C@@H](CC(=O)N1CCC[C@H]1[C@H](OC)[C@@H](C)C(=O)N[C@H](C)[C@@H](O)c1ccccc1)OC)N(C)C(=O)[C@@H](NC(=O)[C@H](C(C)C)N(C)C(=O)OCc1ccc(NC(=O)[C@H](CCCNC(N)=O)NC(=O)[C@@H](NC(=O)[C@H](CS(=O)(=O)O)NC(=O)[C@@H](CCC(=O)O)NC(=O)CCOCCC(=O)NCCNc2ncc(-c3cc(C)cc(F)c3)c(N3CCC(N)CC3)c2-c2nc3ccc(Cl)cc3[nH]2)C(C)C)cc1)C(C)C [Compound 106] (X1-[dE][Cya]V[Cit][PABC][NMeV]V[Dil][Dolaproine]-X2)", "system_under_test": "SST2 (Homo sapiens, UniProt P30874)", "pEC50": 7.80}
{"compound": "CCC(C)C(C(CC(=O)N1CCCC1C(OC)C(C)C(=O)NC(C)C(O)c1ccccc1)OC)N(C)C(=O)C(NC(=O)C(C(C)C)N(C)C(=O)OCc1ccc(NC(=O)[C@H](CCCNC(N)=O)NC(=O)[C@@H](NC(=O)CCOCCOCCOCCOCCC(=O)NCCNc2ncc(-c3cc(C)cc(F)c3)c(N3CCC(NC)CC3)c2-c2nc3ccc(Cl)cc3[nH]2)C(C)C)cc1)C(C)C (stereo in doubt)", "system_under_test": "SST2 (Homo sapiens, UniProt P30874)", "pEC50": 7.61}
{"compound": "CC[C@H](C)[C@@H]([C@@H](CC(=O)N1CCC[C@H]1[C@H](OC)[C@@H](C)C(=O)N[C@H](C)[C@@H](O)c1ccccc1)OC)N(C)C(=O)[C@@H](NC(=O)[C@H](C(C)C)N(C)C(=O)OCc1ccc(NC(=O)[C@H](C)NC(=O)[C@@H](NC(=O)[C@H](CCC(=O)O)NC(=O)CCOCCOCCOCCOCCC(=O)NCCNc2ncc(-c3cc(C)cc(F)c3)c(N3CCC(N)CC3)c2-c2nc3ccc(Cl)cc3[nH]2)C(C)C)c(O[C@@H]2O[C@H](C(=O)O)[C@@H](O)[C@H](O)[C@H]2O)c1)C(C)C", "system_under_test": "SST2 (Homo sapiens, UniProt P30874)", "pEC50": 8.24}
